# System: HS27 fibroblasts
# ASSAY TEXT: Inhibition of proliferation of HS27 fibroblasts (selectivity, MTT reduction assay)
# Assay type: cell-based
# CONDITION SUMMARY: Homo sapiens
REPORTED ENDPOINT: GI50

See these solved cases before continuing.
compound=CC(=O)Nc1cccc2c(Oc3cc(NC(=O)c4cc(C(F)(F)F)cc(C(F)(F)F)c4)ccc3C)ccnc12 reported_endpoint=GI50 reported_value="> 20 µM"
compound=CC(=O)Nc1cccc2c(Oc3cc(NC(=O)c4ccc([N+](=O)[O-])c(C(F)(F)F)c4)ccc3C)ccnc12 reported_endpoint=GI50 reported_value="> 20 µM"
compound=CC(=O)Nc1cccc2c(Oc3cc(NC(=O)c4ccc(Cl)c(C(F)(F)F)c4)ccc3C)ccnc12 reported_endpoint=GI50 reported_value="> 20 µM"
compound=CC(=O)Nc1cccc2c(Oc3ccc(NC(=O)Nc4ccc(Cl)c(C(F)(F)F)c4)cc3)ccnc12 reported_endpoint=GI50 reported_value="6.02 µM"
compound=CC(=O)Nc1cccc2c(Oc3cccc(NC(=O)Nc4ccc(Cl)c(C(F)(F)F)c4)c3)ccnc12 reported_endpoint=GI50 reported_value="5.68 µM"
compound=CC(=O)Nc1cccc2c(Oc3cc(NC(=O)c4cccc(C(F)(F)F)c4)ccc3C)ccnc12 reported_endpoint=GI50 reported_value="> 20 µM"

Which GI50 reading was recorded for the compound O=C(Nc1cccc(Oc2ccnc3c(NC(=O)c4ccccc4)cccc23)c1)c1ccc(Cl)c(C(F)(F)F)c1 ?
> 20 µM

Please answer likewise for CC(=O)Nc1cccc2c(Oc3cccc(NC(=O)c4ccc(Cl)c(C(F)(F)F)c4)c3)ccnc12
> 20 µM

Please answer likewise for Nc1cccc2c(Oc3cccc(NC(=O)c4ccc(Cl)c(C(F)(F)F)c4)c3)ccnc12
> 20 µM
